Data credit: the supplement of paper PMC5412046

test system: SB.mhdgc-1; assay: area under the dose-response curve of % viability (trapezoidal, 11 doses) (% viability x log10 concentration); higher = less cytotoxic; details: SB.mhdgc-1 (hereditary c.1380delA CDH1 gastric cancer)
Kindly state area under the dose-response curve for each of the entries shown.
Reply: number alone, nothing else.

Exercise: Return reported area under the dose-response curve for target or system SB.mhdgc-1, item COC1=CC2=NC=CC(=C2C=C1)OC3=CN=C(NC(=O)C/4=C(C)/N(CC(C)(C)O)N(C4=O)C5=CC=CC=C5)C=C3 [AMG-458] (top concentration 46.0829 µM) .
Key: 455

Exercise: Return reported area under the dose-response curve for target or system SB.mhdgc-1, item CC(C)[C@H]1C(=O)N[C@H](CO)Cc2c[nH]c3cccc(c23)N1C [(-)-Indolactam V] (top concentration 46.0829 µM) .
Key: 504

Exercise: Return reported area under the dose-response curve for target or system SB.mhdgc-1, item CCCCC(C)(C)[C@H](O)/C=C/[C@H]1[C@H](O)CC(=O)[C@@H]1C/C=C\CCCC(=O)O [16,16-dimethyl PGE2] (top concentration 46.0829 µM) .
Key: 522

---

test system: SB.msgc-1; experiment: area under the dose-response curve of % viability (trapezoidal, 11 doses) (% viability x log10 concentration); higher = less cytotoxic; conditions: SB.msgc-1 (sporadic gastric cancer)
Structures can show the parent of a compound that is named as a salt.
Kindly state area under the dose-response curve for each of the entries shown.
Reply: number alone, nothing else.

Exercise: Please report area under the dose-response curve for the following compound: N#C/C(=C(/N)Sc1ccc(N)cc1)c1ccccc1C(F)(F)F [SL-327] (top concentration 46.0829 µM)
Key: 519

Exercise: Please report area under the dose-response curve for the following compound: O=C([O-])C(O)Cc1ccc(O)c(O)c1 (centres undefined) [Sodium Danshensu] (top concentration 46.0829 µM)
Key: 509

Exercise: Please report area under the dose-response curve for the following compound: C[S+](=O)([O-])N1CCc2c(-c3cnc(N)nc3)nc(N3CCOCC3)nc21 (top concentration 46.0829 µM)
Key: 373

Exercise: Please report area under the dose-response curve for the following compound: Cc1cnc(Nc2ccc(OCCN3CCCC3)cc2)nc1Nc1cccc([S+](=O)([O-])NC(C)(C)C)c1 (top concentration 46.0829 µM)
Key: 436

Exercise: Please report area under the dose-response curve for the following compound: NC1CC1c1ccccc1 (centres undefined) [Tranylcypromine] (top concentration 46.0829 µM)
Key: 554

Exercise: Please report area under the dose-response curve for the following compound: NC(=O)Nc1cc(-c2cccc(F)c2)sc1C(=O)N[C@H]1CCCNC1 [AZD-7762] (top concentration 46.0829 µM)
Key: 389

Exercise: Please report area under the dose-response curve for the following compound: COCC1(CO)C(=O)C2CCN1CC2 (centres undefined) [APR-246] (top concentration 46.0829 µM)
Key: 548

Exercise: Please report area under the dose-response curve for the following compound: Cc1cccc2c1CC[C@H](CN1CCC(c3c(Cl)cccc3Cl)CC1)C[C@@H]2O (top concentration 46.0829 µM)
Key: 506

Exercise: Please report area under the dose-response curve for the following compound: CCCCc1ccc(N[S+](=O)([O-])c2ccc(C)c(C(=O)N3CCN(c4cccc(C)c4C)CC3)c2)cc1 [IDH-001] (top concentration 46.0829 µM)
Key: 511

Exercise: Please report area under the dose-response curve for the following compound: O=C(NCc1ccncc1)C12C[C@H]3C[C@@H](C1)CC(c1ccc(Cl)cc1)(C3)C2 (top concentration 46.0829 µM)
Key: 469

Exercise: Please report area under the dose-response curve for the following compound: CC(C)(C)[C@]1(O)C[C@@H]2OC(=O)C[C@@]23C(=O)O[C@@H]2OC(=O)[C@H](O)C213 (some centres undefined) [Bilobalide] (top concentration 46.0829 µM)
Key: 501

Exercise: Please report area under the dose-response curve for the following compound: CC(C)C1=N[N](C\2=C1C(=O)N\C(=N2)CC3=CC=C(OCCO)C=C3)C4=C(Cl)C=CC=C4Cl (top concentration 46.0829 µM)
Key: 353

Exercise: Please report area under the dose-response curve for the following compound: CC(C)(O)CC(=O)NCCn1ccc2ncnc(Nc3ccc(Oc4cccc(C(F)(F)F)c4)c(Cl)c3)c21 [TAK-285] (top concentration 46.0829 µM)
Key: 298

Exercise: Please report area under the dose-response curve for the following compound: Cc1csc(-c2nnc(Nc3ccc(Oc4ncccc4-c4ccnc(N)n4)cc3)c3ccccc23)c1 [AMG-900] (top concentration 46.0829 µM)
Key: 561

Exercise: Please report area under the dose-response curve for the following compound: C[C@]12CC[C@H]3[C@@H](CC[C@@]45O[C@@H]4C(O)=C(C#N)C[C@]35C)[C@@H]1CC[C@@H]2O [Trilostane] (top concentration 46.0829 µM)
Key: 374

Exercise: Please report area under the dose-response curve for the following compound: O=C(Nc1cccc(C(F)(F)F)c1)Nc1cc([S+](=O)([O-])NC2CC2)ccc1-c1ccsc1 [AGI-6780] (top concentration 46.0829 µM)
Key: 598

Exercise: Please report area under the dose-response curve for the following compound: CCn1nnc2c(N3CCOCC3)nc(-c3ccc(NC(=O)Nc4ccc(C(=O)N5CCN(C)CC5)cc4)cc3)nc21 [PKI-402] (top concentration 46.0829 µM)
Key: 405

Exercise: Please report area under the dose-response curve for the following compound: Cc1nc(N)sc1-c1ccnc(Nc2ccc(N3CCOCC3)cc2)n1 [CYC-116] (top concentration 46.0829 µM)
Key: 497

Exercise: Please report area under the dose-response curve for the following compound: COC[C@H]1OC(=O)C2=COC3=C2[C@@]1(C)\C4=C(C5CCC(=O)[C@@]5(C)C[C@H]4OC(C)=O)/C3=O (some centres undefined) [Wortmannin] (top concentration 46.0829 µM)
Key: 406

Exercise: Please report area under the dose-response curve for the following compound: CC(NCCc1ccc(O)cc1)C(O)c1ccc(O)cc1 (centres undefined) [Ritodrine hydrochloride] (top concentration 46.0829 µM)
Key: 581

Exercise: Please report area under the dose-response curve for the following compound: Cc1c(C)c2c(c(C)c1O)CCC(C)(COc1ccc(CC3SC(=O)NC3=O)cc1)O2 (centres undefined) [Troglitazone] (top concentration 46.0829 µM)
Key: 471

Exercise: Please report area under the dose-response curve for the following compound: C\C1=C\N([C@H]2C[C@H](N=[N+]=[N-])[C@@H](CO)O2)C(=O)NC1=O [Zidovudine] (top concentration 46.0829 µM)
Key: 575

Exercise: Please report area under the dose-response curve for the following compound: CCOC(=O)/C=C/[C@H](C[C@@H]1CCNC1=O)NC(=O)[C@@H](CC(=O)[C@@H](NC(=O)c1cc(C)on1)C(C)C)Cc1ccc(F)cc1 [Rupintrivir] (top concentration 46.0829 µM)
Key: 549

Exercise: Please report area under the dose-response curve for the following compound: O=C(CO)N1CCC(c2n[nH]c(-c3ccc(Cl)cc3)c2-c2ccncn2)CC1 [SD-06] (top concentration 46.0829 µM)
Key: 518
